Tested on: MCF7 breast
Experiment: NCI-60 one-dose screen, 48 h (100 = growth as untreated, 0 = no growth, -100 = all killed)
Details: 10 µM
This is part of a sample that, as a whole, favours compounds with a hit. Of some 83,000 tested, about 20% had one in any assay.
The following compounds are shown together with reported growth values.

{"COMPOUND": "C[C@]12CC[C@@H]3c4ccc(OS(=O)(=O)O)cc4CC[C@H]3[C@@H]1CC[C@@H]2NS(=O)(=O)c1ccc(-c2ccccc2)cc1", "MEASURE_UNIT": "%", "growth": 30.2}
{"COMPOUND": "O=C(N/N=C/c1ccc([N+](=O)[O-])cc1)c1ccccc1Nc1cccc(C(F)(F)F)c1", "MEASURE_UNIT": "%", "growth": 111}
{"COMPOUND": "CS(=O)(=O)c1nccc(-c2c(-c3cccc(OCCN4CCOCC4)c3)nc3sccn23)n1", "MEASURE_UNIT": "%", "growth": 69.3}
{"COMPOUND": "O=C1OC(C(Cl)(Cl)Cl)OC1C(Cl)(Cl)Cl (stereo unspecified)", "MEASURE_UNIT": "%", "growth": 114}
{"COMPOUND": "CC(=O)Oc1cc(OC(C)=O)c2ccccc2c1OC(C)=O", "MEASURE_UNIT": "%", "growth": 56.8}
{"COMPOUND": "CCc1cc(Cl)c(OC)c(C(=O)NCC2CCCN2CC)c1O (stereo unspecified)", "MEASURE_UNIT": "%", "growth": 95.8}
{"COMPOUND": "CCN(CCCNc1cc2c(c(N)c1S(=O)(=O)O)C(=O)c1ccccc1C2=O)c1ccccc1", "MEASURE_UNIT": "%", "growth": 107}
{"COMPOUND": "Cc1ccc(Cl)cc1NC(=O)CCl", "MEASURE_UNIT": "%", "growth": 67.8}
{"COMPOUND": "Cc1[nH]c2ccccc2c1/C=N/Nc1ncnc2sc3c(c12)CCN(CC(=O)OC(C)(C)C)C3", "MEASURE_UNIT": "%", "growth": 65.4}
{"COMPOUND": "C=CCNCCN1C(=O)c2ccc3c4c(ccc(c24)C1=O)C(=O)N(CCNCC=C)C3=O", "MEASURE_UNIT": "%", "growth": -60.1}
{"COMPOUND": "COc1ccc(/C=C2\\CCCC3=C2NC(N)=NC3c2ccc(OC)cc2)cc1 (stereo unspecified)", "MEASURE_UNIT": "%", "growth": 72.3}
{"COMPOUND": "CCOc1ccccc1/C=N\\N=C\\c1ccccc1O", "MEASURE_UNIT": "%", "growth": 84.2}
{"COMPOUND": "COc1cc2c(cc1NC(=O)C(F)(F)F)-c1ccc(NC(=O)C(F)(F)F)cc1C2", "MEASURE_UNIT": "%", "growth": 94.2}
{"COMPOUND": "Cc1cc(SC#N)cc(C(C)(C)C)c1O", "MEASURE_UNIT": "%", "growth": 97.4}
{"COMPOUND": "COc1ccc(/C=c2\\sc3n(c2=O)C(c2cc(OC)c(OC)c(OC)c2)C=C(c2ccc(OC)c(OC)c2)N=3)cc1OC (stereo unspecified)", "MEASURE_UNIT": "%", "growth": 86.2}
{"COMPOUND": "COc1ccc(NC(=O)C2CC3C=CC2C3)c([N+](=O)[O-])c1 (stereo unspecified)", "MEASURE_UNIT": "%", "growth": 101}
{"COMPOUND": "OCC1OC2C(NC(=S)N2c2ccccc2)C(O)C1O (stereo unspecified)", "MEASURE_UNIT": "%", "growth": 103}
{"COMPOUND": "COc1cc(/C=C/c2cc(/C=C/c3ccc(O)c(OC)c3)n(C(=O)Nc3ccc(C)cc3)n2)ccc1O", "MEASURE_UNIT": "%", "growth": 6.3}
{"COMPOUND": "O=C1c2c(c3c4ccccc4n(CCCCCCN4CCOCC4)c3c3[nH]c4ccccc4c23)C(=O)N1O", "MEASURE_UNIT": "%", "growth": 6.49}
{"COMPOUND": "O=C(N/N=C/c1ccc(Cl)cc1)c1ccccc1Nc1cccc(C(F)(F)F)c1", "MEASURE_UNIT": "%", "growth": 85.2}
{"COMPOUND": "NC1=NC(c2ccc(Cl)cc2)C2=C(N1)/C(=C/c1ccc(Cl)cc1)CCC2 (stereo unspecified)", "MEASURE_UNIT": "%", "growth": 33.2}

----------
The following molecules are shown together with reported growth values.
Tested on: HS 578T breast
Experiment: NCI-60 one-dose screen, 48 h (100 = growth as untreated, 0 = no growth, -100 = all killed)
Settings: 10 µM
The panel holds about 83,000 compounds, 20% with a hit somewhere; the sample as a whole holds those more often.

{"MOLECULE": "CCOC(=O)c1sc2ncnc(Nc3ccc(NC(=O)Nc4ccc(Cl)cc4)cc3)c2c1C", "growth (%)": 41.4}
{"MOLECULE": "CC(C)C[C@H](NC(=O)Cn1cccc(CNC(=O)c2ccccc2)c1=O)B(O)O", "growth (%)": 16.6}
{"MOLECULE": "COc1cc(C2CC(c3cc(Cl)c(C)cc3O)=NN2c2ccc(S(N)(=O)=O)cc2)cc(OC)c1OC (stereo unspecified)", "growth (%)": 30.3}
{"MOLECULE": "C#C[C@]1(O)CCC2C3CCc4cc(OC5CCCC5)ccc4C3CC[C@@]21C (stereo partly specified)", "growth (%)": 85.6}
{"MOLECULE": "Cc1ccc(Cl)cc1NC(=O)CCl", "growth (%)": 94.2}
{"MOLECULE": "Cc1cc(SCc2ccccc2)nc(N)n1", "growth (%)": 111}
{"MOLECULE": "Cc1c2cnccc2c(C)c2c1c1cc(O)ccc1n2C(C)C", "growth (%)": 3.64}
{"MOLECULE": "CC(CN(C)C)Oc1ccccc1NC1=C(Cl)C(=O)C(Nc2ccccc2OC(C)CN(C)C)=C(Cl)C1=O (stereo unspecified)", "growth (%)": 3.54}
{"MOLECULE": "Nc1nc(-c2ccc(Cl)cc2)cc(-c2cc3ccccc3oc2=O)n1", "growth (%)": 107}
{"MOLECULE": "CCOc1ccccc1/C=N/N1CCCCCC1", "growth (%)": 96}
{"MOLECULE": "CN(C)CCCSc1ccccc1NC1=C(Cl)C(=O)C(Nc2ccccc2SCCCN(C)C)=C(Cl)C1=O", "growth (%)": 87.1}
{"MOLECULE": "COc1cccc(-c2nc3sccn3c2-c2cccc(S(C)(=O)=O)c2)c1", "growth (%)": 99.3}
{"MOLECULE": "Cc1ccc(/C=C/C(=O)C(=O)/C=C/c2ccc(C)cc2)cc1", "growth (%)": 92.6}
{"MOLECULE": "CSc1nc(S(C)(=O)=O)nc2[nH]c(=O)[nH]c12", "growth (%)": 111}
{"MOLECULE": "COc1ccc(-c2onc(N)c2-c2cc(OC)c3c(c2)OCO3)cc1", "growth (%)": 33.8}
{"MOLECULE": "O=C(O)c1ccc(-n2cc(CNc3ccc(Oc4ccccc4)cc3)c(-c3ccccc3)n2)cc1", "growth (%)": 105}
{"MOLECULE": "COC1OC(COS(=O)OC)C(O)C(O)C1OS(=O)OC (stereo unspecified)", "growth (%)": 102}
{"MOLECULE": "O=C1c2ccccc2C(=O)c2c1ccc1c(=O)n(-c3ccccc3C(F)(F)F)nnc21", "growth (%)": 73.1}
{"MOLECULE": "O=C(Nc1cc([N+](=O)[O-])c2[nH]c(=O)c3ccccc3c2c1)C(F)(F)F", "growth (%)": 105}
{"MOLECULE": "CC(=O)[C@H]1CC[C@]2(C)[C@@H]1CC[C@@H]1[C@@]3(C)CC(CCC#N)(CCC#N)C(=O)C(C)(C)[C@@H]3CC[C@]12C", "growth (%)": 90.5}
{"MOLECULE": "COc1ccc(-c2cc(-c3ccccc3)nc(SCCCC(=O)NO)n2)cc1", "growth (%)": 13.8}

----------
System: ACHN renal
Test: NCI-60 one-dose screen, 48 h (100 = growth as untreated, 0 = no growth, -100 = all killed)
Details: 10 µM
This is part of a sample that, as a whole, favours compounds with a hit. Of some 83,000 tested, about 20% had one in any assay. Active and inactive are the calls of the source. How the source made its calls: active means growth percent below 10; inactive means the rest.
The following compounds are shown together with reported growth values.

{"MOLECULE": "CC(C)CCN(CCC(C)C)CC(=O)Nc1ccc(S(=O)(=O)c2ccc(NC(=O)CN(CCC(C)C)CCC(C)C)cc2)cc1", "growth": "69.7% (inactive)"}
{"MOLECULE": "COc1cc(OC)c2c(=O)c(O)c(-c3ccccc3)oc2c1", "growth": "68% (inactive)"}
{"MOLECULE": "Nc1cc(-c2ccncc2)c[nH]c1=O", "growth": "102% (inactive)"}
{"MOLECULE": "Cc1ccc(C2=NN(c3ccc(S(C)(=O)=O)cc3)C(=O)CC2)cc1", "growth": "54.5% (inactive)"}
{"MOLECULE": "O=C(c1ccccc1)N(C(=O)c1ccccc1)N1CCCC1", "growth": "96.3% (inactive)"}
{"MOLECULE": "O=C(CCNC(=O)c1nc(-c2ccccc2)n(-c2ccc(Cl)cc2)n1)NO", "growth": "100% (inactive)"}
